// mass density lookup, one value per entry
# test-settings: 313.15 K; 3000 kPa; Liquid; Vibrating tube method

>  <compound>
CCC[n+]1cccc(C)c1.O=S(=O)([N-]S(=O)(=O)C(F)(F)F)C(F)(F)F

>  <units-text>
kg/m3

>  <mass density>
1436.4

$$$$
>  <compound>
CCC[N+]1(C)CCCC1.O=S(=O)([N-]S(=O)(=O)C(F)(F)F)C(F)(F)F

>  <units-text>
kg/m3

>  <mass density>
1420.9

$$$$
>  <compound>
CCCC[N+]1(C)CCCC1.O=S(=O)([N-]S(=O)(=O)C(F)(F)F)C(F)(F)F

>  <units-text>
kg/m3

>  <mass density>
1391.7

$$$$
>  <compound>
CCC[N+]1(C)CCCCC1.O=S(=O)([N-]S(=O)(=O)C(F)(F)F)C(F)(F)F

>  <units-text>
kg/m3

>  <mass density>
1399.5

$$$$
>  <compound>
CCn1cc[n+](C)c1.O=S(=O)([O-])C(F)(F)F [1-ethyl-3-methylimidazolium trifluoromethanesulfonate]

>  <units-text>
kg/m3

>  <mass density>
1362.9

$$$$

* * *

# Lookup of reported mass density keyed by entry
# test-settings: 393.15 K; 35000 kPa; Liquid; Vibrating tube method

>  <molecule>
CCC[N+]1(C)CCCCC1.O=S(=O)([N-]S(=O)(=O)C(F)(F)F)C(F)(F)F

>  <units-text>
kg/m3

>  <mass density>
1353

$$$$
>  <molecule>
CCn1cc[n+](C)c1.O=S(=O)([O-])C(F)(F)F [1-ethyl-3-methylimidazolium trifluoromethanesulfonate]

>  <units-text>
kg/m3

>  <mass density>
1315.3

$$$$
>  <molecule>
CCCC[N+]1(C)CCCC1.O=S(=O)([N-]S(=O)(=O)C(F)(F)F)C(F)(F)F

>  <units-text>
kg/m3

>  <mass density>
1346.2

$$$$
>  <molecule>
CCC[n+]1cccc(C)c1.O=S(=O)([N-]S(=O)(=O)C(F)(F)F)C(F)(F)F

>  <units-text>
kg/m3

>  <mass density>
1387.5

$$$$
>  <molecule>
CCC[N+]1(C)CCCC1.O=S(=O)([N-]S(=O)(=O)C(F)(F)F)C(F)(F)F

>  <units-text>
kg/m3

>  <mass density>
1374

$$$$

* * *

# test-settings: 293.15 K; 25000 kPa; Liquid; Vibrating tube method
Recorded mass density for the following compounds

>  <compound>
CCC[N+]1(C)CCCCC1.O=S(=O)([N-]S(=O)(=O)C(F)(F)F)C(F)(F)F

>  <mass density / kg/m3>
1433.7

$$$$
>  <compound>
CCn1cc[n+](C)c1.O=S(=O)([O-])C(F)(F)F [1-ethyl-3-methylimidazolium trifluoromethanesulfonate]

>  <mass density / kg/m3>
1393.7

$$$$
>  <compound>
CCC[n+]1cccc(C)c1.O=S(=O)([N-]S(=O)(=O)C(F)(F)F)C(F)(F)F

>  <mass density / kg/m3>
1473.1

$$$$
>  <compound>
CCC[N+]1(C)CCCC1.O=S(=O)([N-]S(=O)(=O)C(F)(F)F)C(F)(F)F

>  <mass density / kg/m3>
1456

$$$$
>  <compound>
CCCC[N+]1(C)CCCC1.O=S(=O)([N-]S(=O)(=O)C(F)(F)F)C(F)(F)F

>  <mass density / kg/m3>
1426.3

$$$$
